TGI values, listed per item
System: DU-145 prostate
Assay: NCI tumour cell line growth inhibition, 48 h

Solved cases (6 shown):
compound	TGI
CCOC(CN(C)C(=S)Nc1cccc2ccccc12)OCC	> 10 µM
COC(=O)C1=C(C)NC(C)=C([N+](=O)[O-])C1c1cccc(N=O)c1 (configuration not stated)	28.7 µM
CCCOC(=O)NC(C)C(=O)NC(CCC(=O)NC(CCCC(N)C(=O)O)C(=O)NC(C)C(=O)O)C(=O)O (configuration not stated)	65.3 µM
COc1ccc(/C=N/N2C(=O)c3c(N)c(C#N)c(-c4ccccc4)c(-c4ccccc4)c3C2=O)cc1	> 100 µM
COC(=O)C1OC(O[C@H]2CC[C@]3(C)[C@H]4CC=C5[C@@H]6CC(C)(C)CC[C@]6(C(=O)OC6OCC(O)C(O)C6OC6OC(C)C(OC7OCC(OC8OCC(O)C(O)C8O)C(O)C7O)C(O)C6O)[C@H](O)C[C@@]5(C)[C@]4(C)CC[C@H]3C2(C)C)C(O)C(O)C1O (some centres not stated)	16.9 µM
Nc1nc(N)nc(CCCc2nc(N)nc(N)n2)n1	> 100 µM

# get_value(readout= TGI, system= DU-145 prostate) for "S=C1SC2=Nc3ccccc3CN2C2=NCCN12" > 100 µM

# get_value(readout= TGI, system= DU-145 prostate) for "CCCCC/C(C=O)=C\c1ccccc1" > 100 µM

# get_value(readout= TGI, system= DU-145 prostate) for COC(C(=O)[C@@H](O)[C@@H](C)O)[C@@H]1Cc2cc3cc(O[C@H]4C[C@@H](O[C@H]5C[C@@H](O)[C@H](O)C(C)O5)[C@H](O)C(C)O4)c(C)c(O)c3c(O)c2C(=O)[C@H]1O[C@H]1C[C@@H](O[C@H]2C[C@@H](O[C@H]3C[C@@H](O)[C@H](OC)C(C)O3)[C@@H](O)C(C)O2)[C@H](O)C(C)O1 (some centres not stated) > 33.3 µM

# get_value(readout= TGI, system= DU-145 prostate) for "Cc1c2ccncc2c(C)c2c1[nH]c1ccccc12" 2.13 µM

# get_value(readout= TGI, system= DU-145 prostate) for "CN1CCN(c2ccc(Nc3ncc4cc(C#N)c(=O)n(C5CCCC5)c4n3)cc2)CC1" > 100 µM

---

System: UACC-62 melanoma
Assay: NCI tumour cell line growth inhibition, 48 h
assay_readout: TGI (µM)
Return type: number; implicit unit µM.

Solved cases (5 shown):
compound	tgt	units_text	reported
COc1ccc2c(c1)C(C)Cc1c(ncnc1-n1cnc3cc(C)ccc31)N2C (stereo not given)	UACC-62 melanoma	µM	18
COc1cc(CNc2nc3cc(C(F)(F)F)ccc3nc2-c2ccccc2)cc(OC)c1OC	UACC-62 melanoma	µM	33.3
CC[C@@]1(O)C(=O)OCc2c1cc1n(c2=O)Cc2c-1nc1cc(F)c(C)c3c1c2[C@@H](N)CC3	UACC-62 melanoma	µM	0.0208
O=c1oc2ccc(Br)cc2c(=O)n1-c1ccc(F)cc1F	UACC-62 melanoma	µM	4.51
C[C@]12CC[C@H](O)C=C1CC[C@@H]1[C@@H]2CC[C@]2(C)C(c3ccc(=O)oc3)CC[C@]12O (stereo not given in full)	UACC-62 melanoma	µM	0.0378

# get_value(readout= TGI, system= UACC-62 melanoma) for OC1(c2ccc(Cl)cc2)c2ccc(CN3CCCC3)cc2C2=NCCN21 (stereo not given) 28.1

# get_value(readout= TGI, system= UACC-62 melanoma) for "CSC(SC)=C1C(=O)N(c2ccccc2)N=C1C" 89.9

# get_value(readout= TGI, system= UACC-62 melanoma) for "Cc1cc2nc(-c3cc(C(C)(C)C)c(O)c(C(C)(C)C)c3)[nH]c2cc1C" 2.74

# get_value(readout= TGI, system= UACC-62 melanoma) for "Nc1nc(Nc2ccccc2)sc1C(=O)c1c[nH]c2ccccc12" 28.9

# get_value(readout= TGI, system= UACC-62 melanoma) for "CC1(C)[C@@H](Cn2cnc3c(Cl)nc(N)nc32)CC[C@@]1(C)CO" 38

---

System: HT29 colon
Assay: NCI tumour cell line growth inhibition, 48 h
TGI values, listed per item

compound	reported
Oc1ccc(Br)cc1C=Nc1ccc(N=Cc2cc(Br)ccc2O)cc1	> 100 µM
O=C(OCc1ccc2c(Cl)cc(Cl)c(O)c2n1)N1CCN(C(=O)c2cc3cc(F)ccc3[nH]2)CC1	> 100 µM
COC(=O)C1=C(O)C(C(=O)OC)[C@@]2(O)[C@@H](C(=O)OC)[C@H](C)[C@@H](C)[C@@H]1[C@@H]2C(=O)OC (stereo not given in full)	> 100 µM
CCC(=O)Nc1ccc(N=NN(C)C)cc1	> 100 µM
Nc1nc(N)nc(CCCc2nc(N)nc(N)n2)n1	> 100 µM
COc1c(O)c(O)cc2c1-c1ccc(OC)c(=O)cc1C(NC(C)=O)CC2 (stereo not given)	16 µM
CC1CN1c1c(C(=O)/C=C/c2ccc(Cl)cc2)c(-c2ccccc2)nn(C)c1=O (stereo not given)	> 10 µM
CCN(CC)c1cc2oc3cc(N)cc(=N)c-3nc2cc1C	15.6 µM

Now take the following compound into account.
Look at this compound and give its reported TGI. "Nc1nc(Nc2ccccc2)sc1C(=O)c1c[nH]c2ccccc12" 14.6 µM

---

Tested on: HCC-2998 colon
Assay: NCI tumour cell line growth inhibition, 48 h
TGI values, listed per item

molecule	assay_readout	reported
Cc1cc2nc(-c3cc(C(C)(C)C)c(O)c(C(C)(C)C)c3)[nH]c2cc1C	TGI	> 100 µM
CC(C)(C)OC(=O)n1c(-c2ccccc2F)cc(=O)c2cc3c(cc21)OCO3	TGI	> 32.3 µM
[F][Sn]([F])([c]1ccccc1)[c]1ccccc1	TGI	3.04 µM
CC/C=C/C/C=C/C/C=C/C/C=C/C/C=C/C/C=C/CCC(=O)Nc1ccn([C@@H]2O[C@H](CO)[C@@H](O)C2(F)F)c(=O)n1	TGI	> 64.4 µM
COC(=O)c1cc2c(cc1CC(Cc1ccc3c(c1)CCC3)C(=O)OC)CCC2 (stereo unspecified)	TGI	> 100 µM

Now take the following molecule into account.
# get_value(readout= TGI, system= HCC-2998 colon) for "CCOC(=O)/C(=C/c1cccc(C#N)c1)N(CC)CC" > 100 µM

---

TGI values, listed per item
System: OVCAR-3 ovarian
Experiment: NCI tumour cell line growth inhibition, 48 h
Return type: number; implicit unit µM.

Solved cases (4 shown):
compound	units_text	reported
COc1ccc2c(c1)C(C)Cc1c(ncnc1-n1cnc3cc(C)ccc31)N2C (stereo unspecified)	µM	14.1
CC(C)C1=C2CCC3(C)C(CCC4C5C6OCC5(CCC6(C)C)CCC43C)C2(C)CC1 (stereo unspecified)	µM	51
C=C1C(=O)OC2/C=C(/C)C3(O)OC(C)(CC(OC(=O)C(C)C)C12)CC3OC(C)=O (stereo unspecified)	µM	29.8
COC(=O)CCC1=C(CC(=O)OC)C(C)=N/C1=C\c1[nH]c(-c2ccc[nH]2)cc1OC	µM	10.2

Look at this compound and give its reported TGI. "O=c1oc2ccc(Br)cc2c(=O)n1-c1ccc(F)cc1F" 11.4

Look at this compound and give its reported TGI. "NC(=S)N/N=C/c1cc(-c2cccc(N)c2)ccn1" 23.2

Look at this compound and give its reported TGI. "CCN(CC)c1cc2oc3cc(N)cc(=N)c-3nc2cc1C" 5.63

---

Test system: 786-0 renal
Assay: NCI tumour cell line growth inhibition, 48 h
TGI values, listed per item

Look at this molecule and give its reported TGI. "O=C(O)CSC(NC(=O)C(C(F)(F)F)C(F)(F)F)(C(F)(F)F)C(F)(F)F" > 100 µM

Look at this molecule and give its reported TGI. "N#CC(=N)c1ncn(-c2ccccc2N)c1N" > 100 µM

Look at this molecule and give its reported TGI. COC(=O)C1OC(O[C@H]2CC[C@]3(C)[C@H]4CC=C5[C@@H]6CC(C)(C)CC[C@]6(C(=O)OC6OCC(O)C(O)C6OC6OC(C)C(OC7OCC(OC8OCC(O)C(O)C8O)C(O)C7O)C(O)C6O)[C@H](O)C[C@@]5(C)[C@]4(C)CC[C@H]3C2(C)C)C(O)C(O)C1O (stereo partly drawn) 20.2 µM

Look at this molecule and give its reported TGI. COc1cc(C(=O)N2CCc3c([nH]c4c([N+](=O)[O-])c(OC)ccc34)C2C)cc(OC)c1OC (stereo not drawn) > 100 µM

Look at this molecule and give its reported TGI. "CN1CCN(c2ccc(Nc3ncc4cc(C#N)c(=O)n(C5CCCC5)c4n3)cc2)CC1" 4.11 µM

Look at this molecule and give its reported TGI. O=C(O)c1c2c(cc3c1CC1(Cc4ccccc4C1=O)C3)CCC2 (stereo not drawn) > 100 µM

Look at this molecule and give its reported TGI. "N#CCCN(CCC#N)c1ccc(/C=C2\SC(=S)NC2=O)cc1Br" > 100 µM

Look at this molecule and give its reported TGI. CC1C(c2ccc3c(c2)OCO3)c2cc3c(cc2OC1N1CCOCC1)OCO3 (stereo not drawn) > 100 µM

Where these numbers come from: PubChem BioAssay (NCI)
